Data credit: the supplement of paper PMC9170038

- Tested on: MS2 coat protein
- testSummary: apparent KD of MS2 coat protein; designed switch direction (-1 OFF switch, 1 ON switch): -1; higher = weaker reporter binding
- appliedConditions: Eterna round: R95; input ligand: FMN 200 uM
Recorded measurements of apparent KD of MS2 coat protein, one per entry
Report only the number, with the unit nM understood.

>  <biopolymerSequence>
AGUAUAGUCCAUGGCCGCAAGCUUUUUACUUGUCUUACCACAUGAGGAUCACCCAUGUGACAUGGGCACCUUAUGAU [Sensor v3, turn-off variant 2 (MOD of Oranla v.4)] (puzzle: Sensor v3, turn-off variant 2)

>  <apparent KD of MS2 coat protein / nM>
20.4

$$$$
>  <biopolymerSequence>
CAAAAGGUAGGAUAUUAUGCCUGUAACAUGAGGAUCACCCAUGUGGUCCGAGACGGAGUUUAAGAAGGACCGAAAA [Masomariat] (puzzle: Exclusion 5)

>  <apparent KD of MS2 coat protein / nM>
895

$$$$
>  <biopolymerSequence>
GAUUAUGCGAGCUUUAGGGACAUGAGGAUCACCCAUGUUCGUCUUAUUAAUCUGGGUACACUGGCAUACCUAAAUCU [JMF 7] (puzzle: Sensor v3, turn-off variant 1)

>  <apparent KD of MS2 coat protein / nM>
26.7

$$$$
>  <biopolymerSequence>
GGUGAGCGAGGAUAUACAUGAGGAUCACCCAUGUGAGAGAAAUAAGUGAGGAAGAAAAGUAGAAGGCGCGAACG [Mat - Exclusion 3 - Mod of Salish D46] (puzzle: Exclusion 3)

>  <apparent KD of MS2 coat protein / nM>
114

$$$$
>  <biopolymerSequence>
AGCAGUAGUAUCCGAUCCUACAUGAGGAUCACCCAUGUAGCUAGACGUGCACGCGAUGCUCGUCAGACUACCAGAUG [salish99_TOv1_r3_035] (puzzle: Sensor v3, turn-off variant 1)

>  <apparent KD of MS2 coat protein / nM>
119

$$$$
>  <biopolymerSequence>
AUUUAGAGAGGAUAUAUAUUGUGAAACAUGAGGAUCACCCAUGUAAUAAUAUGGAUAUAAAUAGAAGGCUCAUUUU [Mat - Exclusion 5 - JL mod - D11] (puzzle: Exclusion 5)

>  <apparent KD of MS2 coat protein / nM>
26.1

$$$$
>  <biopolymerSequence>
GUAUGUUAUGAGGAUAUCGGUGAACAUACACAUCGAGAAGGCAUGACAUGAGGAUCACCCAUGUCAAGGAUGAA [Exclusion 6 - B - 18:a] (puzzle: Exclusion 6)

>  <apparent KD of MS2 coat protein / nM>
34.1

$$$$
>  <biopolymerSequence>
ACAAGCUUUUUGCUCGUCUACAUGAGGAUCACCCAUGUAGUGUGUUAGUGGUGAAGAUAGAUUGAGCGUAGUAGGUA [JR_SV3TOV1_Sub072] (puzzle: Sensor v3, turn-off variant 1)

>  <apparent KD of MS2 coat protein / nM>
102

$$$$

Name the reported apparent KD of MS2 coat protein value associated with the sequence GAUUGACAUGAGGAUCACCCAUGUGAGGAUAUCGGCUGGACCGUGUUGGCUUCGGUUUCGAGAAGGCGCAUAGG [Exclusion 1 V45] (puzzle: Exclusion 1)
52.9

// apparent KD of MS2 coat protein lookup, key: GAGAAGGUAGGAUAUACGAAGAAAAAGGGUAGAAGAAGAACACAUGAGGAUCACCCAUGUAGAAGGACCAAGAG [Mat - Exclusion 2 - Mod of my Tesla design - D17] (puzzle: Exclusion 2)
38
